Where these numbers come from: ChEMBL document CHEMBL1140386

target: Human immunodeficiency virus type 1 integrase (Human immunodeficiency virus 1); assay: In vitro concentration required to inhibit the overall HIV-1 integrase strand transfer
MEASUREMENT KIND: pIC50
Hey, just a heads up that pIC50 is the negative log base 10 of the concentration in molar.

Req: Please give the documented pIC50 of O=C(O)C(=O)/C=C(\O)c1cn(Cc2ccccc2)c2ccc(Cl)cc12
Resp: 8.00

Req: Please give the documented pIC50 of O=C(O)C(=O)/C=C(\O)c1cn(Cc2ccccc2)c2ccccc12
Resp: 7.70

Req: Please give the documented pIC50 of CCOC(=O)C(=O)/C=C(\O)c1cn(Cc2ccc(F)cc2)c2ccc(OC)cc12
Resp: 6.66

----------
For each of the compounds below, state its IC50.
molecular target: Human immunodeficiency virus type 1 integrase (Human immunodeficiency virus 1); assay: In vitro concentration required to inhibit the HIV-1 integrase 3'-processing
Give your result in µM as a bare value.

Req: Please give the documented IC50 of COc1ccc2c(c1)c(/C(O)=C/C(=O)C(=O)O)cn2Cc1ccccc1
Resp: 2.16

Req: Please give the documented IC50 of COc1ccc2c(c1)c(/C(O)=C/C(=O)C(=O)O)cn2Cc1ccc(F)cc1
Resp: 2.71

Req: Please give the documented IC50 of O=C(O)C(=O)/C=C(\O)c1cn(Cc2ccc(F)cc2)c2ccc(Cl)cc12
Resp: 1.59

Req: Please give the documented IC50 of O=C(O)C(=O)/C=C(\O)c1cn(Cc2ccccc2)c2ccccc12
Resp: 8.28

Req: Please give the documented IC50 of O=C(O)C(=O)/C=C(\O)c1cn(Cc2ccccc2)c2ccc(Cl)cc12
Resp: 0.97

Req: Please give the documented IC50 of O=C(NCc1ccc(F)cc1)c1nc(N2CCCCS2(=O)=O)c2cccnc2c1O
Resp: 0.12

Req: Please give the documented IC50 of CCOC(=O)C(=O)/C=C(\O)c1cn(Cc2ccc(F)cc2)c2ccc(Cl)cc12
Resp: 11.5

Req: Please give the documented IC50 of CCOC(=O)C(=O)/C=C(\O)c1cn(Cc2ccccc2)c2ccc(OC)cc12
Resp: 162

Req: Please give the documented IC50 of O=C(O)C(=O)/C=C(\O)c1cn(Cc2ccc(F)cc2)c2ccccc12
Resp: 5.3

Req: Please give the documented IC50 of CCOC(=O)C(=O)/C=C(\O)c1cn(Cc2ccc(F)cc2)c2ccc(OC)cc12
Resp: 131

Req: Please give the documented IC50 of CCOC(=O)C(=O)/C=C(\O)c1cn(Cc2ccccc2)c2ccc(Cl)cc12
Resp: 10.2

----------
test system: MT4; experiment: Selectivity index was measured by the ratio of CC50/EC50; assay type: functional
Please enter T where Selectivity index is greater than or equal to 8, and F where it is lower.

Req: Does O=C(O)C(=O)/C=C(\O)c1cn(Cc2ccc(F)cc2)c2ccc(Cl)cc12 have a reported Selectivity index of at least 8?
Resp: T

Req: Does COc1ccc2c(c1)c(/C(O)=C/C(=O)C(=O)O)cn2Cc1ccc(F)cc1 have a reported Selectivity index of at least 8?
Resp: T

Req: Does O=C(O)C(=O)/C=C(\O)c1cn(Cc2ccc(F)cc2)c2ccccc12 have a reported Selectivity index of at least 8?
Resp: T

Req: Does O=C(NCc1ccc(F)cc1)c1nc(N2CCCCS2(=O)=O)c2cccnc2c1O have a reported Selectivity index of at least 8?
Resp: T

Req: Does CCOC(=O)C(=O)/C=C(\O)c1cn(Cc2ccc(F)cc2)c2ccc(OC)cc12 have a reported Selectivity index of at least 8?
Resp: T

Req: Does CCOC(=O)C(=O)/C=C(\O)c1cn(Cc2ccc(F)cc2)c2ccccc12 have a reported Selectivity index of at least 8?
Resp: F

Req: Does COc1ccc2c(c1)c(/C(O)=C/C(=O)C(=O)O)cn2Cc1ccccc1 have a reported Selectivity index of at least 8?
Resp: T

Req: Does CCOC(=O)C(=O)/C=C(\O)c1cn(Cc2ccccc2)c2ccc(OC)cc12 have a reported Selectivity index of at least 8?
Resp: F

----------
For each of the compounds below, state its pIC50.
target: Human immunodeficiency virus type 1 integrase (Human immunodeficiency virus 1, UniProt Q7ZJM1); experiment: In vitro concentration required to inhibit the HIV-1 integrase strand transfer
Sequence (Q7ZJM1 whole entry): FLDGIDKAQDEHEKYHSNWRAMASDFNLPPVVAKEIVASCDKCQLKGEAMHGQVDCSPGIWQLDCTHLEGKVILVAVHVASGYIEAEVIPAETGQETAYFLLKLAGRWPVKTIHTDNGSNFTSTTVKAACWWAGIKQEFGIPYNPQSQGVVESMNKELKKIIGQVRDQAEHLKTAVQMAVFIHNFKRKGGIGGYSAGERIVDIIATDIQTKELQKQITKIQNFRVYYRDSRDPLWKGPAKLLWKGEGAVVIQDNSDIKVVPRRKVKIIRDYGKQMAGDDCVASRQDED
Hey, just a heads up that pIC50 is the negative log base 10 of the concentration in molar.

Req: Please give the documented pIC50 of COc1ccc2c(c1)c(/C(O)=C/C(=O)C(=O)O)cn2Cc1ccccc1
Resp: 7.68

Req: Please give the documented pIC50 of COc1ccc2c(c1)c(/C(O)=C/C(=O)C(=O)O)cn2Cc1ccc(F)cc1
Resp: 8.40

Req: Please give the documented pIC50 of O=C(O)C(=O)/C=C(\O)c1cn(Cc2ccc(F)cc2)c2ccccc12
Resp: 7.82

Req: Please give the documented pIC50 of CCOC(=O)C(=O)/C=C(\O)c1cn(Cc2ccc(F)cc2)c2ccccc12
Resp: 5.82

Req: Please give the documented pIC50 of O=C(O)C(=O)/C=C(\O)c1cn(Cc2ccc(F)cc2)c2ccc(Cl)cc12
Resp: 8.00

Req: Please give the documented pIC50 of CCOC(=O)C(=O)/C=C(\O)c1cn(Cc2ccccc2)c2ccc(Cl)cc12
Resp: 7.52

Req: Please give the documented pIC50 of CCOC(=O)C(=O)/C=C(\O)c1cn(Cc2ccc(F)cc2)c2ccc(Cl)cc12
Resp: 7.15

Req: Please give the documented pIC50 of O=C(NCc1ccc(F)cc1)c1nc(N2CCCCS2(=O)=O)c2cccnc2c1O
Resp: 8.60

Req: Please give the documented pIC50 of O=C(O)C(=O)/C=C(\O)c1cn(Cc2ccccc2)c2ccc(Cl)cc12
Resp: 7.00

Req: Please give the documented pIC50 of O=C(O)C(=O)/C=C(\O)c1cn(Cc2ccccc2)c2ccccc12
Resp: 7.52

Req: Please give the documented pIC50 of CCOC(=O)C(=O)/C=C(\O)c1cn(Cc2ccccc2)c2ccc(OC)cc12
Resp: 6.17

Req: Please give the documented pIC50 of CCOC(=O)C(=O)/C=C(\O)c1cn(Cc2ccccc2)c2ccccc12
Resp: 5.27

Req: Please give the documented pIC50 of CCOC(=O)C(=O)/C=C(\O)c1cn(Cc2ccc(F)cc2)c2ccc(OC)cc12
Resp: 6.10

----------
tested on: Human immunodeficiency virus 1; assay: Effective concentration required to reduce HIV-1-induced cytopathic effect in MT-4 cells; type: functional, organism-based; conditions: Human immunodeficiency virus 1, MT4
Under this convention, 1 (yes) denotes EC50 strictly below 5 µM and 0 (no) denotes EC50 at or above 5 µM.

Req: Quick check: EC50 of O=C(O)C(=O)/C=C(\O)c1cn(Cc2ccc(F)cc2)c2ccc(Cl)cc12 under 5 µM?
Resp: 1 (yes)

Req: Quick check: EC50 of O=C(O)C(=O)/C=C(\O)c1cn(Cc2ccccc2)c2ccc(Cl)cc12 under 5 µM?
Resp: 1 (yes)

Req: Quick check: EC50 of CCOC(=O)C(=O)/C=C(\O)c1cn(Cc2ccc(F)cc2)c2ccc(Cl)cc12 under 5 µM?
Resp: 1 (yes)

Req: Quick check: EC50 of O=C(O)C(=O)/C=C(\O)c1cn(Cc2ccc(F)cc2)c2ccccc12 under 5 µM?
Resp: 0 (no)

Req: Quick check: EC50 of O=C(NCc1ccc(F)cc1)c1nc(N2CCCCS2(=O)=O)c2cccnc2c1O under 5 µM?
Resp: 1 (yes)

Req: Quick check: EC50 of CCOC(=O)C(=O)/C=C(\O)c1cn(Cc2ccc(F)cc2)c2ccccc12 under 5 µM?
Resp: 0 (no)

Req: Quick check: EC50 of COc1ccc2c(c1)c(/C(O)=C/C(=O)C(=O)O)cn2Cc1ccc(F)cc1 under 5 µM?
Resp: 0 (no)

Req: Quick check: EC50 of O=C(O)C(=O)/C=C(\O)c1cn(Cc2ccccc2)c2ccccc12 under 5 µM?
Resp: 0 (no)

Req: Quick check: EC50 of CCOC(=O)C(=O)/C=C(\O)c1cn(Cc2ccccc2)c2ccc(Cl)cc12 under 5 µM?
Resp: 1 (yes)

Req: Quick check: EC50 of CCOC(=O)C(=O)/C=C(\O)c1cn(Cc2ccccc2)c2ccccc12 under 5 µM?
Resp: 0 (no)

Req: Quick check: EC50 of COc1ccc2c(c1)c(/C(O)=C/C(=O)C(=O)O)cn2Cc1ccccc1 under 5 µM?
Resp: 0 (no)

Req: Quick check: EC50 of CCOC(=O)C(=O)/C=C(\O)c1cn(Cc2ccccc2)c2ccc(OC)cc12 under 5 µM?
Resp: 0 (no)

Req: Quick check: EC50 of CCOC(=O)C(=O)/C=C(\O)c1cn(Cc2ccc(F)cc2)c2ccc(OC)cc12 under 5 µM?
Resp: 0 (no)

----------
For each of the molecules below, state its log10 of CC50.
system: MT4; test: Cytotoxic concentration required to reduce MT-4 cell viability; format: functional; conditions: Homo sapiens
Quick note: numbers are log10 of CC50, with µM as the unit.

Req: Please give the documented log10 of CC50 of CCOC(=O)C(=O)/C=C(\O)c1cn(Cc2ccccc2)c2ccc(OC)cc12
Resp: 1.46

Req: Please give the documented log10 of CC50 of CCOC(=O)C(=O)/C=C(\O)c1cn(Cc2ccccc2)c2ccc(Cl)cc12
Resp: 1.53

Req: Please give the documented log10 of CC50 of O=C(O)C(=O)/C=C(\O)c1cn(Cc2ccccc2)c2ccc(Cl)cc12
Resp: 1.57

Req: Please give the documented log10 of CC50 of CCOC(=O)C(=O)/C=C(\O)c1cn(Cc2ccc(F)cc2)c2ccc(Cl)cc12
Resp: 1.42

Req: Please give the documented log10 of CC50 of COc1ccc2c(c1)c(/C(O)=C/C(=O)C(=O)O)cn2Cc1ccccc1
Resp: 1.94

Req: Please give the documented log10 of CC50 of O=C(O)C(=O)/C=C(\O)c1cn(Cc2ccc(F)cc2)c2ccc(Cl)cc12
Resp: 1.73

Req: Please give the documented log10 of CC50 of O=C(NCc1ccc(F)cc1)c1nc(N2CCCCS2(=O)=O)c2cccnc2c1O
Resp: 0.33

Req: Please give the documented log10 of CC50 of CCOC(=O)C(=O)/C=C(\O)c1cn(Cc2ccc(F)cc2)c2ccccc12
Resp: 1.43

Req: Please give the documented log10 of CC50 of COc1ccc2c(c1)c(/C(O)=C/C(=O)C(=O)O)cn2Cc1ccc(F)cc1
Resp: 1.80

Req: Please give the documented log10 of CC50 of CCOC(=O)C(=O)/C=C(\O)c1cn(Cc2ccc(F)cc2)c2ccc(OC)cc12
Resp: 2.10

Req: Please give the documented log10 of CC50 of CCOC(=O)C(=O)/C=C(\O)c1cn(Cc2ccccc2)c2ccccc12
Resp: 2.08
